Tested on: Escherichia coli
Measurement protocol: Antibacterial activity against Escherichia coli assessed as inhibition of bacterial growth by continuous dilution method
Type: functional
Measurement label: MIC (µg/mL)
Numbers only, in µg/mL.

Past entries and their recorded results:
>>> print(df.to_string())
                              sample_smiles  measurement_label  measured_result
0      Nc1ccc(S(=O)(=O)C/C(=N/O)c2nccs2)cc1                MIC               32
1  CC(=O)Nc1ccc(S(=O)(=O)C/C(=N/Nc2ccccc2)c2nccs2)cc1                MIC              256

Next, consider the following molecule.
Specify measured MIC for CC(=O)Nc1ccc(S(=O)(=O)/C(=C\c2ccc(F)cc2)C(=O)c2nccs2)cc1 .
128
